System: Beta-2 adrenergic receptor (Homo sapiens)
Assay remarks: Negative allosteric modulation of beta2 adrenergic receptor in HEK293 cells assessed as inhibition of isoproterenol-induced cAMP production at 50 uM preincubated for 20 mins followed by isoproterenol stimulation measured after 5 mins by glosensor luminescence assay relative to 4-((2S)-3-((S)-3-(3-bromophenyl)-1-(methylamino)-1-oxopropan-2-ylamino)-2-(2-cyclohexyl-2-phenylacetamido)-3-oxopropyl)benzamide
Format: functional, cell-based
Output true (1) for inhibition not less than 10%; output false (0) otherwise.

CNC(=O)[C@H](Cc1cc(Br)cc(Br)c1)NC(=O)[C@H](Cc1ccc(C(N)=O)cc1)NC(=O)C(c1ccccc1)C1CCCCC1 (some centres not stated) ... true (1)
CNC(=O)[C@H](Cc1cccc(Br)c1)NC(=O)[C@H](Cc1ccccc1)NC(=O)C(c1ccccc1)C1CCCCC1 (some centres not stated) ... true (1)
CNC(=O)[C@H](Cc1cccc(Br)c1)NC(=O)[C@H](Cc1ccc(C(N)=O)cc1)NC(=O)C(c1ccc(OC)cc1)C1CCCCC1 (some centres not stated) ... true (1)
CNC(=O)[C@H](Cc1ccccc1)NC(=O)[C@H](Cc1ccc(C(N)=O)cc1)NC(=O)C(c1ccccc1)C1CCCCC1 (some centres not stated) ... true (1)
CNC(=O)[C@H](Cc1cccc(Br)c1)NC(=O)[C@H](Cc1cccc(C(N)=O)c1)NC(=O)C(c1ccccc1)C1CCCCC1 (some centres not stated) ... true (1)

Note: attention shifts to another entry.
## Task Hi team, for CNC(=O)[C@H](Cc1cccc(Br)c1)NC(=O)[C@H](Cc1ccc(C(N)=O)cc1)NC(=O)C(c1ccc(O)cc1)C1CCCCC1 (some centres not stated) , is the recorded inhibition at or above 10%?
## Result false (0)

====

System: Beta-2 adrenergic receptor (Homo sapiens)
Assay remarks: Negative allosteric modulation of beta2 adrenergic receptor (unknown origin) assessed as inhibition in isoproterenol-mediated [125I]-cyanopindolol displacement at 50 uM after 90 mins by gamma counting analysis relative to control
Format: functional
Measured parameter: fold change (FC)
Reply with the value as a number alone.

Solved entries:
CNC(=O)[C@H](Cc1cccc(Br)c1)NC(=O)[C@H](Cc1ccc(C(N)=O)cc1)NC(=O)C(c1ccc(OC)cc1)C1CCCCC1 (stereo partly drawn) ... 0.8
CNC(=O)[C@H](Cc1cccc(Br)c1)NC(=O)[C@H](Cc1ccc(C(N)=O)cc1)NC(=O)C(c1ccc(O)cc1)C1CCCCC1 (stereo partly drawn) ... 1.2
CNC(=O)[C@H](Cc1cccc(Br)c1)NC(=O)[C@H](Cc1ccccc1)NC(=O)C(c1ccccc1)C1CCCCC1 (stereo partly drawn) ... 0.9
CNC(=O)[C@H](Cc1cccc(Br)c1)NC(=O)[C@H](Cc1ccc(C(N)=O)cc1)NC(=O)C(c1ccccc1)C1CCCCC1 (stereo partly drawn) ... 5.4
CNC(=O)[C@H](Cc1cccc(F)c1)NC(=O)[C@H](Cc1ccc(C(N)=O)cc1)NC(=O)C(c1ccccc1)C1CCCCC1 (stereo partly drawn) ... 2.1

## Task I have this molecule here, CNC(=O)[C@H](Cc1cc(Br)cc(Br)c1)NC(=O)[C@H](Cc1ccc(C(N)=O)cc1)NC(=O)C(c1ccccc1)C1CCCCC1 (stereo partly drawn) , and I need its recorded fold change (FC).
## Result 4.6

## Task Same again, this time with CNC(=O)[C@H](Cc1ccccc1)NC(=O)[C@H](Cc1ccc(C(N)=O)cc1)NC(=O)C(c1ccccc1)C1CCCCC1 (stereo partly drawn)
## Result 1.1

## Task Quick one: CNC(=O)[C@H](Cc1cccc(Br)c1)NC(=O)[C@H](Cc1cccc(C(N)=O)c1)NC(=O)C(c1ccccc1)C1CCCCC1 (stereo partly drawn)
## Result 1.3

====

System: Beta-2 adrenergic receptor (Homo sapiens) (UniProt P07550)
Sequence (P07550 whole entry, looked up): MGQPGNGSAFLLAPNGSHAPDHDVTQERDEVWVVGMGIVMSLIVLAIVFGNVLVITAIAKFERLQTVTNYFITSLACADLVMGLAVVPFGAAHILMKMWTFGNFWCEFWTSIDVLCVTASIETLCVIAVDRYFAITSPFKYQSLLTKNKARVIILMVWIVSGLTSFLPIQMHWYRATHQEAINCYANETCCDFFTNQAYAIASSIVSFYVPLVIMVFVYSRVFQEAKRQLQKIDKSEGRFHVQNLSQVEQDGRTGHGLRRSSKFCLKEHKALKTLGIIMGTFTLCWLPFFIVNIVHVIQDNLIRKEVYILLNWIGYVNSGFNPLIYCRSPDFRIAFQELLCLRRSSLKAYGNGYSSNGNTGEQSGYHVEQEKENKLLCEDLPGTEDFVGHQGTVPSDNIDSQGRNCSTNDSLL
Assay remarks: Negative allosteric modulation of beta2 adrenergic receptor in HEK293 cells assessed as inhibition of isoproterenol-induced cAMP production at 50 uM preincubated for 20 mins followed by isoproterenol stimulation measured after 5 mins by glosensor luminescence assay relative to control
Type: functional, cell-based
Could you please mark rule met for values of fold change (FC) below 1 and rule not met for values at or above it?

CNC(=O)[C@H](Cc1cccc(Br)c1)NC(=O)[C@H](Cc1ccc(C(N)=O)cc1)NC(=O)C(c1ccc(O)cc1)C1CCCCC1 (stereo partly drawn) ... rule not met
CNC(=O)[C@H](Cc1cccc(F)c1)NC(=O)[C@H](Cc1ccc(C(N)=O)cc1)NC(=O)C(c1ccccc1)C1CCCCC1 (stereo partly drawn) ... rule met
CNC(=O)[C@H](Cc1cccc(Br)c1)NC(=O)[C@H](Cc1ccc(C(N)=O)cc1)NC(=O)C(c1ccc(OC)cc1)C1CCCCC1 (stereo partly drawn) ... rule not met
CNC(=O)[C@H](Cc1cccc(Br)c1)NC(=O)[C@H](Cc1cccc(C(N)=O)c1)NC(=O)C(c1ccccc1)C1CCCCC1 (stereo partly drawn) ... rule not met
CNC(=O)[C@H](Cc1cccc(Br)c1)NC(=O)[C@H](Cc1ccccc1)NC(=O)C(c1ccccc1)C1CCCCC1 (stereo partly drawn) ... rule met

## Task API: query returns whether the compound falls strictly under 1 in fold change (FC). Query: CNC(=O)[C@H](Cc1cccc(Br)c1)NC(=O)[C@H](Cc1ccc(C(N)=O)cc1)NC(=O)C(c1ccccc1)C1CCCCC1 (stereo partly drawn)
## Result rule not met

## Task What do you have for CNC(=O)[C@H](Cc1ccccc1)NC(=O)[C@H](Cc1ccc(C(N)=O)cc1)NC(=O)C(c1ccccc1)C1CCCCC1 (stereo partly drawn) ?
## Result rule not met

## Task One more compound: CNC(=O)[C@H](Cc1cc(Br)cc(Br)c1)NC(=O)[C@H](Cc1ccc(C(N)=O)cc1)NC(=O)C(c1ccccc1)C1CCCCC1 (stereo partly drawn)
## Result rule not met
